# ASSAYED SYSTEM: T1, zebrafish Tac3rb (tac3 receptor b, NKB receptor) (zebrafish)
# T1 chain: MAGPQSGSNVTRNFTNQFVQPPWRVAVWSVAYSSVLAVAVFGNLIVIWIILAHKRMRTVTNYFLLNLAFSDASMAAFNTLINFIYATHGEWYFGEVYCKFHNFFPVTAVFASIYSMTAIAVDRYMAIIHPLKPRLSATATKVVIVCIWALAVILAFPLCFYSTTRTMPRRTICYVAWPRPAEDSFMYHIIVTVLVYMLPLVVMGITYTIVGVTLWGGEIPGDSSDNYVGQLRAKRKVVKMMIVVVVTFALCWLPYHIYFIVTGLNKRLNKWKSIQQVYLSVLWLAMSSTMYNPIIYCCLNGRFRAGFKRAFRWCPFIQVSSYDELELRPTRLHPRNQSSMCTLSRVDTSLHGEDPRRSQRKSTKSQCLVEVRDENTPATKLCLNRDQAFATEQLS
# ASSAY: cell-based or functional assay
*1 amine or outer side, *2 acyl side, *3 side chain or, on linkers, in order; H or OH if unused. Where no end group is shown, it is not given here. [ ]: non-standard residue; d: D form. NMeF = CN[C@@H](Cc1ccccc1)C(=O)O; Suc = O=C(CCC(=O)[*:2])[*:1]; NMeV = CN[C@H](C(=O)O)C(C)C
ASSAY ENDPOINT: EC50, SRE reporter gene that follows PKC activation, transfected COS-7 cells (nM)

A selection of reference data follows.
EMHDIFVGLM-NH2 [Zebrafish Tac3a peptide, neurokinin Ba (EMHDIFVGLM-NH2)] = 26.1
Suc-DF[NMeV]GLM-NH2 [NKBb-analog (Succ-Asp-Phe-N(Me)Val-Gly-Leu-Met-NH2)] = 0.23

P: YNDIDYDSFVGLM-NH2 [Zebrafish Tac3f peptide, neurokinin F (YNDIDYDSFVGLM-NH2)]
Q: Suc-DF[NMeF]GLM-NH2 [Senktide (Succ-Asp-Phe-N(Me)Phe-Gly-Leu-Met-NH2)]
Q: Pick one: P or Q . Which has the bigger EC50, SRE reporter gene that follows PKC activation, transfected COS-7 cells number? Returns: label corresponding to the selected item.
Result: Q
(Q: 2.72 nM, P: 0.37 nM)

Data provenance is patent US20150072933A1.
